# Measured Target: T1, T Cell Receptor Beta Constant 2 (TRBC2) (human, UniProt A0A5B9 1-144, limits assumed)
# T1 construct: ELISA antigen; also called TCR beta constant region 2
# T1 sequence (A0A5B9 1-144 limits assumed): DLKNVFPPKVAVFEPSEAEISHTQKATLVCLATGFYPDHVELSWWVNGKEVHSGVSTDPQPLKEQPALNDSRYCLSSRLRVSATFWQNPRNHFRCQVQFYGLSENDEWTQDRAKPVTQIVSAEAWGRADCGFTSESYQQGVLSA
# Measurement Notes: ELISA
Quantity Name: binding result

Binder | Quantity Name | Obs Value
Jovi Hum 21 (antibody, V domains shown, also called H-AF 7) VH: QVQLVQSGAEVKKPGASVKVSCKASGYTFTGYVMHWVRQAPGQGLEWIGFINPYNDDIQSNERFRGRVTMTSDTSISTAYMELSRLRSDDTAVYYCARGAGYNFDGAYRFFDFWGQGTMVTVSS VL: DIVMTQSPLSLPVTPGEPASISCRSSQRLVHSNGNTYLHWYLQKPGQSPRLLIYRVSNRFPGVPDRFSGSGSGTDFTLKISRVEAEDVGVYYCSQSTHVPYTFGQGTKLEIK | binding result | no binding
Jovi Hum 8 (antibody, V domains shown, also called H-AF 1; humanised antibody with H-AF062256 VH and 3aaz VL) VH: QVQLVQSGAEVKKPGASVKVSCKASGYTFTGYVMHWVRQAPGQGLEWMGFINPYNDDIQSNERFRGRVTMTRDTSISTAYMELSRLRSDDTAVYYCARGAGYNFDGAYRFFDFWGQGTMVTVSS VL: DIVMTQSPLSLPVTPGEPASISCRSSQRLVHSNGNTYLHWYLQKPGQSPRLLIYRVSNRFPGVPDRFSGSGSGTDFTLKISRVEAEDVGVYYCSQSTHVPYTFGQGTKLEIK | binding result | no binding
Jovi Hum 27 (antibody, V domains shown, also called H-AF 13) VH: QVQLVQSGAEVKKPGASVKMSCKASGYTFTGYVMHWVRQAPGQGLEWIGFINPYNDDIQSNERFRGRVTMTRDTSISTAYMELSRLRSDDTAVYYCARGAGYNFDGAYRFFDFWGQGTMVTVSS VL: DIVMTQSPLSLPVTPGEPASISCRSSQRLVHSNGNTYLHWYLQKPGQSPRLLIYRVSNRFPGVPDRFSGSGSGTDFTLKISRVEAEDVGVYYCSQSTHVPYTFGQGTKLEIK | binding result | no binding
